meta.source: patent EP4656642A1

biological target: ERα (Homo sapiens); assay: Degradation of ERα in T-47D cells (immunoblotting, 4 h); format: cell-based; parameters: host or cells: T-47D; conditions: 10nM compound
Sequence (P03372 whole entry): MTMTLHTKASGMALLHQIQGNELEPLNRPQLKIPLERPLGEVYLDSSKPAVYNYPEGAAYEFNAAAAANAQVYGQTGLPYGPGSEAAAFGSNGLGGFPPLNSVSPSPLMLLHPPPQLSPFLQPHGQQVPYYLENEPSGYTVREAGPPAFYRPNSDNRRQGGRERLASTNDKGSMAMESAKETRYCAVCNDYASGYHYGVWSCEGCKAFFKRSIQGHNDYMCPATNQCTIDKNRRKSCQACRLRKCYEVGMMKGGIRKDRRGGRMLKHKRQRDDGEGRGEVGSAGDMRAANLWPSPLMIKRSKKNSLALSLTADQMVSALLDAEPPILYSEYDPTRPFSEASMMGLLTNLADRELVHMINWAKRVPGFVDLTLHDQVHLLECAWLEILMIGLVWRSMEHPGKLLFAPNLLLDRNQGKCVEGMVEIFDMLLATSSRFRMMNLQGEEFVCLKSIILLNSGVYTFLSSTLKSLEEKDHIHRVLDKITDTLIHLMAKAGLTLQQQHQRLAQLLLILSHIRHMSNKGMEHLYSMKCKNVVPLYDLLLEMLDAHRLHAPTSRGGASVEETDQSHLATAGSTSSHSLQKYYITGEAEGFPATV
We'd kindly ask you to apply these Degradation rate (%) of ERα in T-47D cells classes: LOW = under 40%, MEDIUM = from 40% up to 70%, HIGH = 70% and over

MOLECULE | CLASS_LABEL
O=C1CCC(N2Cc3c(ccc4c3OCC43CCN(CC4CCN(C5CCN(c6ccc([C@@H]7c8ccc(O)cc8CC[C@@H]7c7ccccc7)cc6)CC5)CC4)CC3)C2=O)C(=O)N1 (stereo partly drawn) | MEDIUM

For O=C1CCC(N2Cc3c(ccc4c3OCC43CCN(C(=O)CC4CCN(c5ccc([C@@H]6c7ccc(O)cc7CC[C@@H]6c6ccccc6)cc5)CC4)CC3)C2=O)C(=O)N1 (stereo partly drawn) [A124] , which Degradation rate (%) of ERα in T-47D cells bin applies? MEDIUM

Consider O=C1CCC(N2C(=O)c3cc4c(cc3C2=O)OC2(CC4)CCN(C3CCC4(CC3)CCN(c3ccc(C5c6ccc(O)cc6CCC5c5ccccc5)cc3)CC4)CC2)C(=O)N1 (stereo not drawn) . To which Degradation rate (%) of ERα in T-47D cells class does it belong? LOW

Determine which band this molecule sits in: O=C1CCC(N2Cc3cc4c(cc3C2=O)CCC2(CN(C3CN(C5CCN(c6ccc([C@@H]7c8ccc(O)cc8CC[C@@H]7c7ccccc7)cc6)CC5)C3)C2)O4)C(=O)N1 (stereo partly drawn) MEDIUM

Would you mind sorting O=C1CCC(N2Cc3c(ccc4c3OC3(CC4)CCN(C4CCC5(CC4)CN(c4ccc([C@@H]6c7ccc(O)cc7CC[C@@H]6c6ccccc6)cc4)C5)CC3)C2=O)C(=O)N1 (stereo partly drawn) into the appropriate category? LOW

Band for O=C1CCC(N2Cc3cc4c(cc3C2=O)C2(CCN(C3CCC5(CC3)CCN(c3ccc([C@@H]6c7ccc(O)cc7CC[C@@H]6c6ccccc6)cc3)CC5)CC2)CO4)C(=O)N1 (stereo partly drawn) ? MEDIUM

In plain terms, what class is O=C1CCC(N2Cc3c(ccc4c3OCC43CCN(C(=O)C4CCC(CN5CCN(c6ccc(C7c8ccc(O)cc8CCC7c7ccccc7)cc6)CC5)CC4)CC3)C2=O)C(=O)N1 (stereo not drawn) [C5] ? HIGH

Class label required: O=C1CCC(N2Cc3c(ccc4c3OCC43CCN(C4CC5CCCC(C4)N5C(=O)C4CCN(c5ccc([C@@H]6c7ccc(O)cc7CC[C@@H]6c6ccccc6)cc5)CC4)CC3)C2=O)C(=O)N1 (stereo partly drawn) [D1] HIGH

Which category does the recorded Degradation rate (%) of ERα in T-47D cells put COC(=O)[C@@H]1C[C@H](N2CCC3(CC2)COc2c3ccc3c2CN(C2CCC(=O)NC2=O)C3=O)CCN1C1CCN(c2ccc([C@@H]3c4ccc(O)cc4CC[C@@H]3c3ccccc3)cc2)CC1 (stereo partly drawn) in? HIGH

For the record O=C1CCC(N2Cc3c(ccc4c3OCC43CCN(c4ccc(C(=O)N5CCN(c6ccc([C@@H]7c8ccc(O)cc8CC[C@@H]7c7ccccc7)cc6)CC5)cn4)CC3)C2=O)C(=O)N1 (stereo partly drawn) , report the class its Degradation rate (%) of ERα in T-47D cells corresponds to. MEDIUM

Which category does the recorded Degradation rate (%) of ERα in T-47D cells put O=C1CCC(N2Cc3c(ccc4c3OCC43CCN(C(=O)CN4CC[C@]5(CCN(c6ccc([C@@H]7c8ccc(O)cc8CC[C@@H]7c7ccccc7)cc6)C5)C4)CC3)C2=O)C(=O)N1 (stereo partly drawn) in? MEDIUM

Into which bin does this molecule go? O=C1CCC(N2Cc3cc4c(cc3C2=O)CCC2(CN(C(=O)C3CC5(CCN(c6ccc([C@@H]7c8ccc(O)cc8CC[C@@H]7c7ccccc7)cc6)CC5)C3)C2)O4)C(=O)N1 (stereo partly drawn) LOW
